Where do these numbers come from? They come from ChEMBL document CHEMBL1136857.

Test system: Mus musculus
Assay Comment: Antidepressant activity against Swiss-Webster mouse assessed as reduction in duration of immobility at 10 mg/kg, ip after 1 hr by tail suspension behavioral despair test relative to control
Type: functional
Parameters: scale not given: the % may be the effect or the level left
Stated Conditions: route intraperitoneal
Recorded Activity for the following compounds
Unit % implied. Number only.

INSERT INTO measurements (compound, metric_name, data_value) VALUES
  ('CCOC(=O)C(C(=O)O)N1C=CCC(C(=O)N/N=C/c2ccccc2O)=C1 (centres undefined)', 'Activity', 64.55),
  ('CN(C)CCCN1c2ccccc2CCc2ccccc21', 'Activity', 45.14),
  ('CN(C)c1ccc(/C=N/NC(=O)c2cc[n+](C(C(=O)O)C(=O)O)cc2)cc1.[Br-]', 'Activity', 50.75),
  ('CN(C)c1ccc(/C=N/NC(=O)C2C=CN(C(C(=O)O)C(=O)O)C=C2)cc1', 'Activity', 54.95),
  ('CCOC(=O)C(C(=O)O)N1C=CC(C(=O)N/N=C/c2ccccc2O)C=C1 (centres undefined)', 'Activity', 36.7);

Quote Activity reported for CCOC(=O)C(C(=O)O)[n+]1ccc(C(=O)N/N=C/c2ccccc2O)cc1.[Br-] (centres undefined) please.
30.34

Give me measured Activity, please, for this compound: CCOC(=O)C(C(=O)O)[n+]1cccc(C(=O)N/N=C/c2ccccc2O)c1.[Br-] (centres undefined)
39.15

Check the records and state Activity for CCOC(=O)C(C(=O)O)N1C=CC(C(=O)N/N=C/c2ccccc2Cl)C=C1 (centres undefined)
40.9

Read the entry CCOC(=O)C(C(=O)O)[n+]1ccc(C(=O)N/N=C/c2ccccc2Cl)cc1.[Br-] (centres undefined) and write its reported Activity.
31.42
